# Tgt: Gal4 DNA binding domain fused to the LBD of LXRβ in HEK293 cells (Homo sapiens (Human), UniProt P55055)
# Sequence (P55055 222-460 limits assumed): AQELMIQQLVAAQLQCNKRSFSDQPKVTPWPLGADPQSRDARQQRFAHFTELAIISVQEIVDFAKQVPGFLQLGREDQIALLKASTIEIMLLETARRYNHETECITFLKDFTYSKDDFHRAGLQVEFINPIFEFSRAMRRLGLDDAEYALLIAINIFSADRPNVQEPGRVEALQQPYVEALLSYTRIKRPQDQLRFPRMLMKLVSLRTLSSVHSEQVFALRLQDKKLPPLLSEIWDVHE
# Assay name: cell-based
# Format: cell-based
# Experimental context: antagonist mode, 200 nM T0901317, HEK293 reporter gene assay

- Molecule: "CS(=O)(=O)c1cccc(N2CCN(C[C@H]3CC[C@@](C)(O)CC3)[C@@H](c3ccccc3)C2)c1 (single isomer, unassigned)"
  Cell LXRβ efficacy: "93%"
- Molecule: "CS(=O)(=O)c1cc(N2CCN(C[C@H]3CC[C@@H](C(F)(F)F)CC3)[C@@H](c3ccccc3)C2)ccc1C(N)=O (single isomer, unassigned)"
  Cell LXRβ efficacy: "135%"
- Molecule: "CS(=O)(=O)c1cccc(N2CCN(C[C@@H]3C[C@@H]4[C@H](C3)C4(F)F)[C@@H](c3ccccc3)C2)c1 (single isomer, unassigned)"
  Cell LXRβ efficacy: "81%"
- Molecule: "CS(=O)(=O)c1cccc(N2CCN(C[C@@H]3CCN(CC(F)(F)F)C3)[C@@H](c3ccccc3)C2)c1 (single isomer, unassigned)"
  Cell LXRβ efficacy: "118 (72) %"
- Molecule: "CC[C@@H](O)c1cnc(N2CCN(c3ccc(F)c(S(C)(=O)=O)c3)C[C@H]2C(C)C)nc1C(F)(F)F (single isomer, unassigned)"
  Cell LXRβ efficacy: "104 (87) %"
- Molecule: "CC(C)[C@@H]1CN(c2ccc(F)c(S(C)(=O)=O)c2)CCN1c1ncc(CN(C)C)c(C(F)(F)F)n1"
  Cell LXRβ efficacy: "900 (93) %"
- Molecule: "C[C@]1(c2ccccc2)CN(c2cccc(S(C)(=O)=O)c2)CCN1Cc1ccc(C(F)(F)F)c(Cl)c1 (single isomer, unassigned)"
  Cell LXRβ efficacy: "688 (70) %"
- Molecule: "CS(=O)(=O)c1cccc(N2CCN(C[C@H]3CC[C@@H](C(F)(F)F)CC3)[C@@H](c3ccccc3)C2)c1 (single isomer, unassigned)"
  Cell LXRβ efficacy: "96%"
- Molecule: "CC(C)[C@@H]1CN(c2ccc(CO)c(S(C)(=O)=O)c2)CCN1c1ncc(C(N)=O)c(C(F)(F)F)n1"
  Cell LXRβ efficacy: "359 (99) %"
- Molecule: "CS(=O)(=O)c1cccc(N2CCN(Cc3ccc(C(F)(F)F)c(F)c3)[C@@H](c3ccccc3)C2)c1 (single isomer, unassigned)"
  Cell LXRβ efficacy: "6798 (54) %"
- Molecule: "NS(=O)(=O)c1cccc(N2CCN(C[C@H]3CC[C@@H](C(F)F)CC3)[C@@H](c3ccccc3)C2)c1 (single isomer, unassigned)"
  Cell LXRβ efficacy: "91%"
- Molecule: "CC(C)[C@@H]1CN(c2ccc(F)c(S(C)(=O)=O)c2)CCN1c1ncc(CNS(C)(=O)=O)c(C(F)(F)F)n1"
  Cell LXRβ efficacy: "1773 (113) %"
- Molecule: "CC(C)[C@@H]1CN(c2ccc(F)c(S(C)(=O)=O)c2)CCN1c1ncc(C(=O)N(C)CCCO)c(C(F)(F)F)n1"
  Cell LXRβ efficacy: "875 (90) %"
- Molecule: "CS(=O)(=O)c1cccc(N2CCN(C[C@H]3CC[C@H](C(F)(F)F)CC3)[C@@H](c3ccccc3)C2)c1 (single isomer, unassigned)"
  Cell LXRβ efficacy: "52%"
- Molecule: "CS(=O)(=O)c1cccc(N2CCN(Cc3ccc(C(F)(F)F)cc3)[C@@H](c3ccc(F)cc3)C2)c1"
  Cell LXRβ efficacy: "5823 (95) %"
- Molecule: "CC(C)[C@@H]1CN(c2ccc(F)c(S(C)(=O)=O)c2)CCN1c1ncc(Cc2ccc(C(C)(C)O)cc2)c(C(F)(F)F)n1"
  Cell LXRβ efficacy: "115 (124) %"
- Molecule: "C[C@]1(c2ccccc2)CN(c2cccc(S(C)(=O)=O)c2)CCN1Cc1ccc(C(F)(F)F)cc1 (single isomer, unassigned)"
  Cell LXRβ efficacy: "537 (75) %"
- Molecule: "CC(C)[C@@H]1CN(c2ccc(F)c(S(C)(=O)=O)c2)CCN1c1ncc(CN(C)C(C)(C)C)c(C(F)(F)F)n1"
  Cell LXRβ efficacy: "1325 (91) %"

Reference source: patent US10144715B2
